- System: biotinyl-Leu-oxazolone
- measurement.description: self-aminoacylation, catalytic enhancement (BLO) (fold over background); higher = more active; k-Seq, kA / k0A0; sequences stand for … in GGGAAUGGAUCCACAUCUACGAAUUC…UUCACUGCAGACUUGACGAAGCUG
Variants at the floor of the assay were thinned out.
Let's look at some sequences and their measured self-aminoacylation.
Give the figure by itself; no unit, no explanation.

sequence.content	assay.system	self-aminoacylation
AUUACCCCGGUCAUCGAGUUA [Fam2.1 aminoacylation ribozyme variant]	biotinyl-Leu-oxazolone	1.16
AUUAACCUGGUCAUCCAGUGA [Fam2.1 aminoacylation ribozyme variant]	biotinyl-Leu-oxazolone	4.45

Name the reported self-aminoacylation value associated with the sequence AUUCACAUAGUUCAUCGGGUG [Fam2.2 aminoacylation ribozyme variant]
3.48

====

Let's look at some sequences and their measured self-aminoacylation.
- System: biotinyl-Val-oxazolone
- measurement.description: self-aminoacylation, catalytic enhancement (BVO) (fold over background); higher = more active; k-Seq, kA / k0A0; sequences stand for … in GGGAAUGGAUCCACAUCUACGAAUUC…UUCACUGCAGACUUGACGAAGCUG
This sample holds only a part of the variants without activity.
Give the figure by itself; no unit, no explanation.

Consider the worked cases shown below.
sequence.content	self-aminoacylation
AUUACCCUGCUCAUCGCGUGA [Fam2.1 aminoacylation ribozyme variant]	7.29
CUAAUUCAAACAAUGGGUCUG [Fam1A.1 aminoacylation ribozyme variant]	0.739
AAGUUUGUUAAUAAUCGCAAG [Fam3.1 aminoacylation ribozyme variant]	0.842
ACUCACCUAAGUCAUCGGGUG [Fam2.2 aminoacylation ribozyme variant]	5.83
AUACACCUAGGUCAUCGCGUG [Fam2.2 aminoacylation ribozyme variant]	5.01
CCACAAUUAAAGCAAUCGGUC [Fam1B.1 aminoacylation ribozyme variant]	1.13
AUUCCCCUAGAUCAUCGGGUG [Fam2.2 aminoacylation ribozyme variant]	6.64
AUUCAACAAGGUCAUCGGGUG [Fam2.2 aminoacylation ribozyme variant]	3.32
AUUACCCUGGUCAUCGGGUGG [Fam2.1 aminoacylation ribozyme variant]	26.3
AAGUUUGCUAAUCGUCGCGAG [Fam3.1 aminoacylation ribozyme variant]	1.01

Name the reported self-aminoacylation value associated with the sequence CCACACUUUAAGUAAUCGGUC [Fam1B.1 aminoacylation ribozyme variant]
0.694

What do we get for AUUACCCGUGUCAUCGAGUGA [Fam2.1 aminoacylation ribozyme variant] ?
4.8

What do we get for AUACACCAAGGUCAUCGGGUG [Fam2.2 aminoacylation ribozyme variant] ?
3.5

What do we get for CCAUACUUCAAGCAAGCGGUC [Fam1B.1 aminoacylation ribozyme variant] ?
1.03

What do we get for AUUACCCUGGUCAUUCAGUGA [Fam2.1 aminoacylation ribozyme variant] ?
3.16

What do we get for AAGUUUGCUAAUAGUCGUAAC [Fam3.1 aminoacylation ribozyme variant] ?
0.822

What do we get for AUUAACUUAGGUCAUCGGGUG [Fam2.2 aminoacylation ribozyme variant] ?
2.59

What do we get for CCGCACUUCAACCAAUCGGUC [Fam1B.1 aminoacylation ribozyme variant] ?
2.38

What do we get for AUUCAGCUAUGUCAUCGGGUG [Fam2.2 aminoacylation ribozyme variant] ?
2.63

What do we get for AUUACCCUGAUCAUCGAGUGG [Fam2.1 aminoacylation ribozyme variant] ?
1.62
